Reported EC50 by item:
Target: UniProt Q14833
Assay: mGluR4 potentiation assay: increase in response to an EC20 concentration of agonist (species not given)
Conditions: EC50 for potentiation of mGluR4; table does not state human or rat
From the text: The disclosed compounds and compositions can be evaluated for their ability to act as a potentiator of metabotropic glutamate receptor activity, in particular mGluR4 activity, by any suitable known methodology known in the art. […] The cells were loaded with either a Ca2+-sensitive fluorescent dye or the thallium responsive dye and the plates were washed and placed into a suitable kinetic plate reader. […]

These solved cases illustrate the format of a correct answer.
                              smiles_record  observable   result
0  c1cnc2c(Nc3ccc4nn(CC5CCC5)cc4c3)n[nH]c2c1        EC50  > 10 µM
1  [2H]C([2H])([2H])n1nc(Cl)c2cc(Nc3n[nH]c4cccnc34)ccc21        EC50  > 10 µM
2   c1cc2c(cnn2CC2CCC2)cc1Nc1n[nH]c2c1CCCC2        EC50  > 10 µM
3      Cc1nn(C)c2ncc(Nc3n[nH]c4cccnc34)cc12        EC50  > 30 µM

# ---- query compound ----
IN: Consider the compound `Cc1nn(C(C)C)c2ncc(Nc3n[nH]c4ncccc34)cc12` . State its measured EC50.
OUT: > 10 µM

---

Biological target: mGluR4 (UniProt Q14833)
Experiment: mGluR4 potentiation assay: increase in response to an EC20 concentration of agonist (species not given)
Conditions: EC50 for potentiation of mGluR4; table does not state human or rat
Text: The disclosed compounds and compositions can be evaluated for their ability to act as a potentiator of metabotropic glutamate receptor activity, in particular mGluR4 activity, by any suitable known methodology known in the art. […] The cells were loaded with either a Ca2+-sensitive fluorescent dye or the thallium responsive dye and the plates were washed and placed into a suitable kinetic plate reader. […]
Observable: pEC50
Remember the convention: pEC50 equals -log10 of concentration in molar.

                                   compound  numeric_value
0  Cc1nn(CC2CCCC2)c2ccc(Nc3n[nH]c4cccnc34)cc12 [Example 106]           6.84
1  Cc1nn(C2CCCC2)c2ccc(Nc3n[nH]c4cccnc34)cc12 [Example 74]           6.58

IN: Note down pEC50 recorded for CC(C)n1ncc2cc(Nc3n[nH]c4nccnc34)cnc21 [Example 153]
OUT: 6.38

IN: Write down pEC50 measured for item [2H]C([2H])([2H])n1nc(C2CC2)c2ccc(Nc3n[nH]c4nccnc34)cc21 [Example 22]
OUT: 8.00

IN: Tell me measured pEC50 for Cc1nn(CC2CCC2)c2ccc(Nc3n[nH]c4ncccc34)cc12 [Example 75] please.
OUT: 6.73

IN: Look up and state reported pEC50 for FC(F)(F)Cn1nc(Cl)c2cc(Nc3n[nH]c4cccnc34)ccc21 [Example 275]
OUT: 5.57

IN: Please give measured pEC50 of the following entry: Cn1nc(N2CC(C)(C3CC3)CC2=O)c2ccc(Nc3n[nH]c4cccnc34)cc21 (stereo not drawn) [Example 39]
OUT: 6.12

---

Target: mGluR4 (UniProt Q14833)
Test: mGluR4 potentiation assay: increase in response to an EC20 concentration of agonist (species not given)
Details: EC50 for potentiation of mGluR4; table does not state human or rat
EC50 values, listed per item
# value in µM; strip the unit string

IN: Determine reported EC50 for `Cc1nn(C(C)C)c2ccc(Nc3n[nH]c4cccnc34)cc12` ; test system: mGluR4 (UniProt Q14833).
OUT: 0.133

IN: Give EC50 for this entry on mGluR4 (UniProt Q14833): `Cc1nn(CC2CCC2)c2ccc(Nc3n[nH]c4ccccc34)cc12`
OUT: 0.342

IN: Report its EC50 with mGluR4 (UniProt Q14833) as the test system: `Cn1cc2cc(Nc3n[nH]c4cccnc34)ccc2n1`
OUT: 0.315
